System: 556581-035-R-J1 tumor spheroid viability, % test/control
Assay: Anticancer human tumor 556581-035-R-J1 patient-derived ovarian carcinoma cell line growth inhibition
Settings: second compound 100 µM; first compound 10 µM; active compounds read low; spheroids with HUVEC and MSC
So I've got a bunch of molecules here, and I need their viability, T/C values.
Answer format: numeric, % implied, no suffix.

The molecule identified as Cc1cc(C)c(CNC(=O)c2cc(-c3ccc(CN4CCOCC4)cc3)cc3c2cnn3C2CCCC2)c(=O)[nH]1 + Cn1nnc2c(C(N)=O)ncn2c1=O registered its viability, T/C at 84.8

The molecule identified as COc1cc(C)[nH]c(=O)c1CN1CCc2c(Cl)cc(C(OC)C3COC3)c(Cl)c2C1=O (stereo unspecified) + Cn1nnc2c(C(N)=O)ncn2c1=O registered its viability, T/C at 103

The molecule identified as CC(C)n1c(=O)n(C)c2cnc3cc(F)c(-c4ccc(OCCCN5CCCCC5)nc4)cc3c21 + Cn1nnc2c(C(N)=O)ncn2c1=O registered its viability, T/C at 69.1

The molecule identified as COc1ccc([C@@H](O)c2cc(-c3ncnc4cc(N5CCOCC5)ccc34)c(F)cc2Cl)nn1 + Cn1nnc2c(C(N)=O)ncn2c1=O registered its viability, T/C at 39.3

The molecule identified as [2H]c1nc(C)nc([2H])c1-c1cc(NC[C@@H](C)c2cccc3c(C(=O)NC)ccnc23)ncn1 + Cn1nnc2c(C(N)=O)ncn2c1=O registered its viability, T/C at 114

The molecule identified as CC1COCCN1c1cc(-c2ccnn2C)c2ccnc(-c3ccn[nH]3)c2n1 (stereo unspecified) + Cn1nnc2c(C(N)=O)ncn2c1=O registered its viability, T/C at 32.8

###

System: 556581-035-R-J1 tumor spheroid viability, % test/control
Assay: Anticancer human tumor 556581-035-R-J1 cell line growth inhibition;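 note: spheroids exposed to compounds for 7 days before viability read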
Conditions: second compound 0.00949 µM; first compound 0.3 µM; active compounds read low; spheroids with HUVEC and MSC
Endpoint Label: viability, T/C (%)
Answer format: numeric, % implied, no suffix.

The compound identified as Cn1ncnc1[C@H]1c2n[nH]c(=O)c3cc(F)cc(c23)N[C@@H]1c1ccc(F)cc1 + CC[C@@]1(O)C(=O)OCc2c1cc1n(c2=O)Cc2cc3c(CN(C)C)c(O)ccc3nc2-1 registered its viability, T/C at 71.4

The compound identified as CNCc1ccc(-c2cc(-c3nc(-c4ccc(S(=O)(=O)C(C)C)cc4)cnc3N)on2)cc1 + CC[C@@]1(O)C(=O)OCc2c1cc1n(c2=O)Cc2cc3c(CN(C)C)c(O)ccc3nc2-1 registered its viability, T/C at 93.6

The compound identified as O=C(c1cc(Cc2n[nH]c(=O)c3ccccc23)ccc1F)N1CCN(C(=O)C2CC2)CC1 + CC[C@@]1(O)C(=O)OCc2c1cc1n(c2=O)Cc2cc3c(CN(C)C)c(O)ccc3nc2-1 registered its viability, T/C at 95.8

The compound identified as Cc1sc2c(c1C)C(c1ccc(Cl)cc1)=NC(CC(=O)Nc1ccc(O)cc1)c1nnc(C)n1-2 (centres undefined) + CC[C@@]1(O)C(=O)OCc2c1cc1n(c2=O)Cc2cc3c(CN(C)C)c(O)ccc3nc2-1 registered its viability, T/C at 68.8

###

Test system: 556581-035-R-J1 tumor spheroid viability, % test/control
Assay: Anticancer human tumor 556581-035-R-J1 cell line growth inhibition;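 note: spheroids exposed to compounds for 7 days before viability read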
Settings: second compound 100 µM; first compound 0.949 µM; active compounds read low; spheroids with HUVEC and MSC
Method: Multicellular complex tumor spheroid response to DNA repair inhibitors in combination with DNA-damaging drugs This study explores the anticancer activities of DNA-damaging drugs and inhibitors of DNA damage repair, both as single agents and in combinations. […] Twenty-six patient-derived or established malignant cell lines were evaluated representing sarcoma, melanoma, small cell lung cancer (SCLC), non-small cell lung cancer (NSCLC), as well as bladder, ovarian and pancreatic cancers. […]
Endpoint Label: viability, T/C

Measured viability, T/C for this entry O=C(c1cc(Cc2n[nH]c(=O)c3ccccc23)ccc1F)N1CCN(C(=O)C2CC2)CC1 + Cn1nnc2c(C(N)=O)ncn2c1=O on 556581-035-R-J1 tumor spheroid viability, % test/control: 80.2%

Measured viability, T/C for this entry CNCc1ccc(-c2cc(-c3nc(-c4ccc(S(=O)(=O)C(C)C)cc4)cnc3N)on2)cc1 + Cn1nnc2c(C(N)=O)ncn2c1=O on 556581-035-R-J1 tumor spheroid viability, % test/control: 50.5%

Measured viability, T/C for this entry Cc1sc2c(c1C)C(c1ccc(Cl)cc1)=NC(CC(=O)Nc1ccc(O)cc1)c1nnc(C)n1-2 (centres undefined) + Cn1nnc2c(C(N)=O)ncn2c1=O on 556581-035-R-J1 tumor spheroid viability, % test/control: 59.1%

Measured viability, T/C for this entry Cn1ncnc1[C@H]1c2n[nH]c(=O)c3cc(F)cc(c23)N[C@@H]1c1ccc(F)cc1 + Cn1nnc2c(C(N)=O)ncn2c1=O on 556581-035-R-J1 tumor spheroid viability, % test/control: 54.7%

Data credit: PubChem BioAssay AID1845199
